Target: TAOK1 (Homo sapiens)
Construct: purchased Thermo Fisher Scientific (outsourced assay service)
Sequence (Q7L7X3 whole entry): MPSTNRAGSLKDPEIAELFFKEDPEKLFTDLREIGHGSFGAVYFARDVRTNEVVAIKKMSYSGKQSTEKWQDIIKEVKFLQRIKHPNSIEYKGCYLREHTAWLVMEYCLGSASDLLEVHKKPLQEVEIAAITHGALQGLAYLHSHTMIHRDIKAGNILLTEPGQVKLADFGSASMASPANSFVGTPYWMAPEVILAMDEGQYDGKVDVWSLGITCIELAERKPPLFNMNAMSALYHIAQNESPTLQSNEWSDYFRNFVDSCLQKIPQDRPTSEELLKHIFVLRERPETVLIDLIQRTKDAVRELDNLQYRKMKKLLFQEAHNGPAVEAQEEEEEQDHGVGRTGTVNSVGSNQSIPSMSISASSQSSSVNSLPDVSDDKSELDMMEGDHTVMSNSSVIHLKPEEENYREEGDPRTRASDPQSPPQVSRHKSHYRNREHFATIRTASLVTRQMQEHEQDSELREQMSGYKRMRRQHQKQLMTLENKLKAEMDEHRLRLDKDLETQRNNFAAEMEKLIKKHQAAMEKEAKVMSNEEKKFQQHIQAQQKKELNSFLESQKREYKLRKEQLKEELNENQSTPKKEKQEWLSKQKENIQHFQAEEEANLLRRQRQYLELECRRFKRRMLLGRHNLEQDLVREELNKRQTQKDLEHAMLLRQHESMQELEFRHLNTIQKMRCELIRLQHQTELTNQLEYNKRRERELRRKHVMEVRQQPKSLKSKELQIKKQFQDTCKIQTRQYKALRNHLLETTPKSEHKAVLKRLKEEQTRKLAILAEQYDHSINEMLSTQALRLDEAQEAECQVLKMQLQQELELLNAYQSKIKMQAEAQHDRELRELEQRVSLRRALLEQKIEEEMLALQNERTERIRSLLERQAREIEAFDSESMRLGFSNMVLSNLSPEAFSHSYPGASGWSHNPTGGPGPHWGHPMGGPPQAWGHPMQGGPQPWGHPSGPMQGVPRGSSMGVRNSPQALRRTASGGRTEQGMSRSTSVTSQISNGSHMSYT
Method notes: Enzymatic assay (LanthaScreen, Thermo Fisher)
Format: biochemical
Condition info: 10 μM compound; average of two replicates; read-out: Inhibition percentage at 10 μM TAOK1
Measure name: inhibition at 10 µM (%)

Compound: CC(=O)Nc1ccc(Nc2nc(Cl)nc(Nc3ccc(NC(C)=O)cc3)n2)cc1 [Compound 6]
Target: TAOK1 (Homo sapiens)
Measure name: inhibition at 10 µM
Endpoint result: 12

A = O=C(Nc1nc2ccccc2[nH]1)c1ccc(C(=O)Nc2nc3ccccc3[nH]2)cc1 [Compound 5]
B = CC1=C(C(=O)Nc2cccc3c2C(=O)NC3=O)CC(C(=O)Nc2cccc3c2C(=O)NC3=O)=C(C)N1 [Compound 7]
C = Nc1nnc(N)c2nc(-c3ccccc3)c(-c3ccccc3)nc12 [Compound 4]
## Task List these items ordered by inhibition at 10 µM, big to small. Your answer should be the labels, listed in the requested order.
## Result C, B, A

---

Target: UniProt:Q9Y4K4
pIC50: −log10 of the molar value.
Measure name: pIC50

P = Nc1ncnc2nc(-c3ccc(C(=O)c4ccc([N+](=O)[O-])cc4)cc3)[nH]c12
Q = Nc1nc(N)c2nc(-c3ccc(O)cc3)c(-c3ccc(O)cc3)nc2n1
## Task I'm curious, which of these has a smaller pIC50 number: P or Q ? Reply briefly: the label of your chosen item.
## Result P
(P: 5.20, Q: 5.70)

---

Target: TAOK1 (Homo sapiens)
Measure name: IC50 (µM)
All answers are understood in µM, so give the number only.

The compound Nc1ncnc2nc(-c3ccc(C(=O)c4ccc([N+](=O)[O-])cc4)cc3)[nH]c12 [Compound 3] , tested on TAOK1 (Homo sapiens), showed IC50 of 5.3

---

Target: MAP4K5 (Homo sapiens, UniProt Q9Y4K4)
Construct: purchased Thermo Fisher Scientific (outsourced assay service)
Sequence (Q9Y4K4 whole entry): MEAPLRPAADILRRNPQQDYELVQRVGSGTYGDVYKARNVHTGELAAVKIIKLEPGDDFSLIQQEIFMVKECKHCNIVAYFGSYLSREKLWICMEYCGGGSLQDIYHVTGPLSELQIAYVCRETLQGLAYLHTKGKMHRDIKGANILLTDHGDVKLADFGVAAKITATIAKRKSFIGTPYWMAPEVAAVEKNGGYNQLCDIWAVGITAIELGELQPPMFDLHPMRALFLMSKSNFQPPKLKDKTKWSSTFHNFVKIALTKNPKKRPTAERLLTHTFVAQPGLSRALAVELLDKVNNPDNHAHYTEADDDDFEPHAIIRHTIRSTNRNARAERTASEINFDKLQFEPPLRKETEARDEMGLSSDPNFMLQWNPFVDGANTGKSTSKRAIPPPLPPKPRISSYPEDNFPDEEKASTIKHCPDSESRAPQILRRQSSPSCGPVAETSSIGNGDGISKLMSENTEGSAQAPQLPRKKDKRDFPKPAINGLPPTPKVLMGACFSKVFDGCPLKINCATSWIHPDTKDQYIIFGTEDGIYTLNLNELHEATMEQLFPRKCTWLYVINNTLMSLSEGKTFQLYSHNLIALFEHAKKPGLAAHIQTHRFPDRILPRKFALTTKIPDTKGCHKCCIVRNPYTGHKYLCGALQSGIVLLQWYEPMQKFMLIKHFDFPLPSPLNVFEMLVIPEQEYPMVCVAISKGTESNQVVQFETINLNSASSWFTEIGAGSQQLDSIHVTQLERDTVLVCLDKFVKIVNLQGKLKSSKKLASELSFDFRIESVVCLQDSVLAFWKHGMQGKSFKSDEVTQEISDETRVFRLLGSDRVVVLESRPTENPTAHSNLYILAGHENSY
Method notes: Enzymatic assay (Z'-LYTE, Thermo Fisher)
Format: biochemical
Condition info: 10 μM compound; average of two replicates; read-out: Inhibition percentage at 10 μM MAP4K5
Measure name: inhibition at 10 µM (%)

Structure as smiles: CC(=O)Nc1ccc(Nc2nc(Cl)nc(Nc3ccc(NC(C)=O)cc3)n2)cc1
Target: MAP4K5 (Homo sapiens, UniProt Q9Y4K4)
Endpoint result: 41
//
Structure as smiles: O=C(Nc1nc2ccccc2[nH]1)c1ccc(C(=O)Nc2nc3ccccc3[nH]2)cc1
Target: MAP4K5 (Homo sapiens, UniProt Q9Y4K4)
Endpoint result: 44
//
Structure as smiles: CC1=C(C(=O)Nc2cccc3c2C(=O)NC3=O)CC(C(=O)Nc2cccc3c2C(=O)NC3=O)=C(C)N1
Target: MAP4K5 (Homo sapiens, UniProt Q9Y4K4)
Endpoint result: 47
//
Structure as smiles: Nc1nnc(N)c2nc(-c3ccccc3)c(-c3ccccc3)nc12
Target: MAP4K5 (Homo sapiens, UniProt Q9Y4K4)
Endpoint result: 54
